Entries and their measured solubility follow.
# assay remarks: Solubility determination in oil (Table 10)
# condition summary: 40 °C, oil or lipid, thermodynamic from solid, Approximate Solubility in Excipient: Cottonseed oil, Heating Temp. 40 °C, Obs. Temp. 40 °C

record smiles: CCCCCCCCCCCCOC(=O)Oc1ccc2c3c1O[C@H]1C(=O)CC[C@@]4(O)C(C2)N(CC2CC2)CC[C@]314
solubility: > 407 mg/mL
--
record smiles: C=C1CC[C@@]2(O)C3Cc4ccc(OC(=O)CCCCCCCCCCC/C=C\CCCCCCCC)c5c4[C@@]2(CCN3CC2CC2)[C@H]1O5
solubility: > 381 mg/mL
--
record smiles: C=C1CC[C@@]2(O)C3Cc4ccc(OC(=O)CCCCCCC/C=C\C/C=C\CCCCC)c5c4[C@@]2(CCN3CC2CC2)[C@H]1O5
solubility: > 405 mg/mL
--
record smiles: C=C1CC[C@@]2(O)C3Cc4ccc(OC(=O)CCCCCCC/C=C\CCCCCCCC)c5c4[C@@]2(CCN3CC2CC2)[C@H]1O5
solubility: > 419 mg/mL
--
record smiles: C=C1CC[C@@]2(O)C3Cc4ccc(OC(=O)OCCCCCCCCCCCC)c5c4[C@@]2(CCN3CC2CC2)[C@H]1O5
solubility: > 421 mg/mL
--
record smiles: C=C1CC[C@@]2(O)C3Cc4ccc(OC(=O)CCC5CCCC5)c5c4[C@@]2(CCN3CC2CC2)[C@H]1O5
solubility: 225 to 402 mg/mL
--
record smiles: C=C1CC[C@@]2(O)C3Cc4ccc(OC(=O)CCCCCCC/C=C\C/C=C\C/C=C\CC)c5c4[C@@]2(CCN3CC2CC2)[C@H]1O5
solubility: > 414 mg/mL
--
record smiles: C=C1CC[C@@]2(O)C3Cc4ccc(OC(=O)OCCCCCCCCCC)c5c4[C@@]2(CCN3CC2CC2)[C@H]1O5
solubility: > 403 mg/mL
--
record smiles: C=C1CC[C@@]2(O)C3Cc4ccc(OC(=O)OCCCCCCCCCCCCCCCC)c5c4[C@@]2(CCN3CC2CC2)[C@H]1O5
solubility: 67 to 80 mg/mL
